- Test system: HeLa
- protocol-notes: Cytotoxicity against human HeLa cells assessed as reduction in cell viability incubated for 48 hrs by MTT assay
- Format: functional, cell-based
readout: pIC50
Please note pIC50 is a logarithmic value: minus log10 of concentration in mol/L. Answer with that number alone.

INSERT INTO assay_data (smiles_input, tested_target, reported_result) VALUES
  ('C=C1C(=O)O[C@H]2C[C@@H](C)[C@@H]3[C@@H](OC(=O)/C(C)=C\C)C[C@@H](OC(=O)CC(C)C)[C@@]3(C)C[C@H]12', 'HeLa', 5.03);

Continue with the next compound.
Quickly give me recorded pIC50 for CC(C)CC(=O)O[C@H]1[C@@H]2[C@H](C)C(=O)O[C@@H]2C[C@@H](C)[C@@H]2C=CC(=O)[C@]21C
5.26
